experiment: self-splicing fitness, log relative to wild type (ln ratio); higher = more splicing; Tetrahymena group I intron in knt gene, E. coli kanamycin selection, DiMSum; sequences stand for … in CUCUCU…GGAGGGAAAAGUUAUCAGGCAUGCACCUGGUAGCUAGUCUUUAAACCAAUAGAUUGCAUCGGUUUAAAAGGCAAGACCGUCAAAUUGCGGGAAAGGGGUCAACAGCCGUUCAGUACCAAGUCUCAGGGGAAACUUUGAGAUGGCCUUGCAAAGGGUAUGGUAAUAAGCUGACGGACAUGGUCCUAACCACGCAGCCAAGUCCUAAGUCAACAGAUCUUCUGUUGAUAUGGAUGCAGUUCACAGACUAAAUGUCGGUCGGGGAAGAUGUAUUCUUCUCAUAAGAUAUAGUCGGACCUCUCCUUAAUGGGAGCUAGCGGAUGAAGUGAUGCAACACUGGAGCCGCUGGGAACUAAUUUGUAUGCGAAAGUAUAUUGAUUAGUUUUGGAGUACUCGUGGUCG; conditions: 37 °C;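 further: selection with 25 µg/mL kanamycin versus none on LB agar overnight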
Respond with 1 (yes) for self-splicing fitness (ln) values of -1 and above, 0 (no) for values below.

{"columns": ["sequence-string", "group"],
 "data": [
  ["CACCAGCAAUAUUACGACGC", "0 (no)"],
  ["UUGCAGCAAUAUUACGAUUC", "0 (no)"],
  ["UCCCAGCAAUAUUACGGCGA", "1 (yes)"],
  ["CCAAAGCAAUAUUACGGCAC", "0 (no)"],
  ["CCUUAGCAAUAUUACGAUCA", "0 (no)"],
  ["CCUGAGCAAUAUUACGCAGU", "0 (no)"],
  ["GCGCAGCAAUAUUACGGACC", "1 (yes)"],
  ["AUCUAGCAAUAUUACGACGG", "0 (no)"],
  ["CGGAAGCAAUAUUACGAUUA", "0 (no)"],
  ["CAGUAGCAAUAUUACGCAGC", "0 (no)"],
  ["GCCUAGCAAUAUUACGACUU", "1 (yes)"],
  ["UCUAAGCAAUAUUACGAAAA", "0 (no)"],
  ["GUUCAGCAAUAUUACGGUCA", "1 (yes)"],
  ["UGAAAGCAAUAUUACGCAAU", "1 (yes)"],
  ["CUGCAGCAAUAUUACGUUCA", "0 (no)"],
  ["AGGGAGCAAUAUUACGGACU", "1 (yes)"],
  ["GUCGAGCAAUAUUACGACAC", "0 (no)"],
  ["UCCAAGCAAUAUUACGGUCC", "0 (no)"],
  ["UGUUAGCAAUAUUACGUUCU", "1 (yes)"],
  ["UGUCAGCAAUAUUACGCUUU", "1 (yes)"],
  ["CUGUAGCAAUAUUACGCCGC", "0 (no)"],
  ["CGACAGCAAUAUUACGUUCG", "0 (no)"],
  ["ACUUAGCAAUAUUACGGACG", "1 (yes)"],
  ["AGAAAGCAAUAUUACGGUCU", "1 (yes)"],
  ["AUGUAGCAAUAUUACGACUC", "1 (yes)"],
  ["UUCUAGCAAUAUUACGUCCA", "1 (yes)"],
  ["UCUGAGCAAUAUUACGACCG", "0 (no)"],
  ["CACUAGCAAUAUUACGUACA", "0 (no)"],
  ["GCGUAGCAAUAUUACGGCUG", "0 (no)"],
  ["GUAUAGCAAUAUUACGUCAA", "0 (no)"],
  ["AACUAGCAAUAUUACGAGGG", "0 (no)"],
  ["ACUGAGCAAUAUUACGGGCC", "0 (no)"],
  ["CUCUAGCAAUAUUACGUCCA", "0 (no)"]
]}

* * *

Listed next: entries and their corresponding self-splicing fitness (ln).
experiment: self-splicing fitness, log relative to wild type (ln ratio); higher = more splicing; Tetrahymena group I intron in knt gene, E. coli kanamycin selection, DiMSum; sequences stand for … in CUCUCU…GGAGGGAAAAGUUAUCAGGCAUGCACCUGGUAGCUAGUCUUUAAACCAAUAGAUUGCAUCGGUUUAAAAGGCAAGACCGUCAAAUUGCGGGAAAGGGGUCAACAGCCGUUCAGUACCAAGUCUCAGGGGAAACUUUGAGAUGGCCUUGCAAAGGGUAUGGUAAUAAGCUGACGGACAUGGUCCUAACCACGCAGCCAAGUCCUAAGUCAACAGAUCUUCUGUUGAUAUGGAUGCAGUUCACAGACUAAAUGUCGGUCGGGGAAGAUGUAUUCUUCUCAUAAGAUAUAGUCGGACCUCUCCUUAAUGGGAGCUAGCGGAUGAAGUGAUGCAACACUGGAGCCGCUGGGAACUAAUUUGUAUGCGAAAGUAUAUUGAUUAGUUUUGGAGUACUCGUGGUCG; conditions: 37 °C

{"columns": ["sequence-string", "self-splicing fitness (ln)"],
 "data": [
  ["AUCCAGCAAUAUUACGCAGA", -0.448],
  ["ACCGAGCAAUAUUACGGUCU", -1.62],
  ["AUUAAGCAAUAUUACGAGCG", -0.58],
  ["GCGAAGCAAUAUUACGCGGU", -1.65],
  ["CGCAAGCAAUAUUACGUAUU", -3.5],
  ["AACGAGCAAUAUUACGACAU", -1.33],
  ["CCUCAGCAAUAUUACGUGAU", -2.71],
  ["CCCGAGCAAUAUUACGAGCC", -2.12],
  ["CUUUAGCAAUAUUACGGACU", -3.71],
  ["CAAUAGCAAUAUUACGUGAC", -2.21],
  ["GACUAGCAAUAUUACGAAGU", -1.82],
  ["ACUAAGCAAUAUUACGAUUG", -1.5],
  ["AGUCAGCAAUAUUACGAUGU", 0.34],
  ["CGGAAGCAAUAUUACGUGGA", -2.93],
  ["CAAGAGCAAUAUUACGUGCA", -3.06],
  ["GACGAGCAAUAUUACGAUGU", -1.38],
  ["GAUAAGCAAUAUUACGAUCG", -0.691],
  ["CCUUAGCAAUAUUACGGCUA", -1.75],
  ["CGCGAGCAAUAUUACGUGUG", -2.68],
  ["CGCUAGCAAUAUUACGAAGU", -2.28],
  ["GGUUAGCAAUAUUACGAAAA", 0.949],
  ["CUCCAGCAAUAUUACGUCAA", -3.24],
  ["UCCUAGCAAUAUUACGAAUA", -1.98],
  ["UCUAAGCAAUAUUACGCCGA", -0.156],
  ["GUAGAGCAAUAUUACGGACU", -0.459],
  ["UGUGAGCAAUAUUACGAGCU", -2.14],
  ["ACAUAGCAAUAUUACGCAUC", -1.3],
  ["GUACAGCAAUAUUACGACUG", -1.33],
  ["AACAAGCAAUAUUACGUAAU", -0.78],
  ["GGGUAGCAAUAUUACGUGGA", -2.02],
  ["GGGCAGCAAUAUUACGACGU", 0.553],
  ["AUAAAGCAAUAUUACGCCUA", -0.286],
  ["GCUCAGCAAUAUUACGCUGU", -0.159],
  ["AAACAGCAAUAUUACGCUAC", -3.56],
  ["ACUCAGCAAUAUUACGCAAU", -0.643],
  ["CUUAAGCAAUAUUACGAGCC", -3.51],
  ["UACUAGCAAUAUUACGCUGU", -3.27],
  ["CCACAGCAAUAUUACGCCUU", -1.59],
  ["GGAGAGCAAUAUUACGUCCA", -0.872],
  ["GGGAAGCAAUAUUACGCGAU", -0.798],
  ["CAGCAGCAAUAUUACGUCUC", -0.898],
  ["UCGGAGCAAUAUUACGAGGG", -2.94],
  ["GGCCAGCAAUAUUACGAUUU", -0.659],
  ["UUCGAGCAAUAUUACGUAGA", -1.97],
  ["UCUAAGCAAUAUUACGUUAG", -1.04],
  ["UCAAAGCAAUAUUACGCGUU", -3.64],
  ["GUUUAGCAAUAUUACGAUGC", 0.32],
  ["CACCAGCAAUAUUACGUACC", -1.84],
  ["CUAUAGCAAUAUUACGUGUU", -3.15],
  ["GGAUAGCAAUAUUACGACGC", 0.262],
  ["AAACAGCAAUAUUACGAUUC", 0.0665],
  ["GUCGAGCAAUAUUACGACCA", -0.961],
  ["CACUAGCAAUAUUACGCGAA", -2.74],
  ["CCGUAGCAAUAUUACGGUUA", -1.57],
  ["ACGCAGCAAUAUUACGCUGC", -3.02],
  ["GGCAAGCAAUAUUACGGAAA", -1.27],
  ["GCCCAGCAAUAUUACGACAA", -1.27],
  ["UUUUAGCAAUAUUACGUGCU", -0.459],
  ["GUGCAGCAAUAUUACGGCUC", -0.129],
  ["GGGUAGCAAUAUUACGUCUA", 0.226],
  ["CGGUAGCAAUAUUACGAACA", -0.395],
  ["AACCAGCAAUAUUACGCUUG", -1.07],
  ["CUGGAGCAAUAUUACGGCAC", -2.35],
  ["GACGAGCAAUAUUACGCUUA", -1.13],
  ["AUGCAGCAAUAUUACGCUGU", -2.63],
  ["UUAGAGCAAUAUUACGUACU", -1.81],
  ["UCCUAGCAAUAUUACGGUUC", -1.55]
]}

Cited source for all entries: the supplement of paper PMC7877785
